Consider the following compounds and their measured melting point readings.

// below: answered compounds
- COc1ccc(/C=C/C(=O)CC(=O)/C=C/c2cc(O)cc(O)c2)cc1O: 190 to 193 °C
- O=C(/C=C/c1ccc(O)cc1)CC(=O)/C=C/c1ccc2[nH]nnc2c1: 211 to 216 °C
- COCOc1ccc(OC)cc1/C=C/C(=O)CC(=O)/C=C/c1cc(OC)ccc1O: 131 to 138 °C

Exercise: Return melting point (reported value) for this compound: O=C(/C=C/c1ccc(O)cc1)CC(=O)/C=C/c1cc(OCc2c(F)cccc2Cl)ccc1[N+](=O)[O-]
Key: 180 to 183 °C

Exercise: Return melting point (reported value) for this compound: O=C(/C=C/c1ccc(O)cc1)CC(=O)/C=C/c1coc2ccccc2c1=O
Key: 227 to 231 °C

Exercise: Return melting point (reported value) for this compound: Nc1ccccc1/C=C/C(=O)CC(=O)/C=C/c1ccc(O)cc1
Key: 186 to 193 °C

Exercise: Return melting point (reported value) for this compound: COc1ccc(/C=C/C(=O)CC(=O)/C=C/c2ccccc2O)cc1O
Key: 90 to 96 °C

Exercise: Return melting point (reported value) for this compound: COc1ccc(OC)c(/C=C/C(=O)CC(=O)/C=C/c2ccc(O)cc2)c1
Key: 70 to 74 °C

Exercise: Return melting point (reported value) for this compound: O=C(/C=C/c1ccc(O)cc1)CC(=O)/C=C/c1cccc2cccnc12
Key: 112 to 117 °C

----------
recorded.metric: melting point

- O=C(/C=C/c1ccc(O)cc1)CC(=O)/C=C/c1ccc(Br)cc1N1CCN(CCO)CC1 [CU502]: 127 to 133 °C
- CCN(CC)c1ccc(/C=C/C(=O)CC(=O)/C=C/c2ccc(O)cc2)c(OC(=O)c2ccccc2)c1 [CU425]: 212 to 215 °C

Exercise: Return melting point (reported value) for this compound: COc1ccc(O)cc1/C=C/C(=O)CC(=O)/C=C/c1ccc(O)cc1 [CU177]
Key: 183 to 186 °C

Exercise: Return melting point (reported value) for this compound: O=C(/C=C/c1ccc(O)cc1)CC(=O)/C=C/c1cc(Cl)cc(Cl)c1 [CU201]
Key: 165 to 172 °C

Exercise: Return melting point (reported value) for this compound: COc1cccc(OC)c1/C=C/C(=O)CC(=O)/C=C/c1c(OC)cccc1OC [CU390]
Key: 180 to 184 °C

Exercise: Return melting point (reported value) for this compound: COCOc1c(O)cccc1/C=C/C(=O)CC(=O)/C=C/c1ccc(O)cc1 [CU247]
Key: 158 to 161 °C

Exercise: Return melting point (reported value) for this compound: COc1ccc(/C=C/C(=O)CC(=O)/C=C/c2cn(Cc3ccccc3)c3ccccc23)cc1O [CU417]
Key: 194 to 199 °C

Exercise: Return melting point (reported value) for this compound: COc1cc(/C=C/C(=O)CC(=O)/C=C/c2cc(O)ccc2O)ccc1O [CU106]
Key: 125 to 130 °C

Exercise: Return melting point (reported value) for this compound: COc1ccc(/C=C/C(=O)CC(=O)/C=C/c2ccc(OC)c3ccccc23)cc1O [CU163]
Key: 170 to 175 °C

----------
recorded.metric: melting point

// below: answered compounds
* COc1ccc2cc(/C=C/C(=O)CC(=O)/C=C/c3ccc(OC)c(O)c3)ccc2c1 | 175 to 181 °C
* COCOc1c(O)cccc1/C=C/C(=O)CC(=O)/C=C/c1ccc(OC)c(O)c1 | 79 to 83 °C
* Cc1ccc(Oc2ncccc2/C=C/C(=O)CC(=O)/C=C/c2ccc(O)cc2)cc1 | 180 to 185 °C
* O=C(/C=C/c1ccc(O)cc1)CC(=O)/C=C/c1ccc2ccn(Cc3ccccc3)c2c1 | 164 to 170 °C
* O=C(/C=C/c1ccc(O)cc1)CC(=O)/C=C/c1ccc(-c2ccccn2)cc1 | 229 to 232 °C
* O=C(/C=C/c1ccc(O)cc1)CC(=O)/C=C/c1cccc(O)c1 | 217 °C

Exercise: Return melting point (reported value) for this compound: O=C(/C=C/c1ccc(O)cc1)CC(=O)/C=C/c1cc(Cl)ccc1[N+](=O)[O-]
Key: 241 to 250 °C

Exercise: Return melting point (reported value) for this compound: Cn1cccc1/C=C/C(=O)CC(=O)/C=C/c1ccc(O)cc1
Key: 169 to 173 °C

Exercise: Return melting point (reported value) for this compound: O=C(/C=C/c1ccc(O)cc1)CC(=O)/C=C/c1ccc(N2CCN(Cc3ccccc3)CC2)nc1
Key: 132 to 138 °C
